- Test system: morningglory
- Assay Overview: Test A pre-/postemergence herbicide test
- Format: in vivo, Ipomoea spp.
- Assay Conditions: Preemergence, 500 g ai/ha; visual rating, 0 to 100 scale (0 no effect, 100 complete control)
Listing of entries alongside the reported Morningglory plant response rating.
Just the number, please.

Observe how each entry below is paired with its result.
• CCN(CC)C(=O)c1cc(NC(=O)c2cc(C(C)(C)C)nn2CC)ccc1F [Compound 59] = 10
• CCOC(=O)c1cccc(NC(=O)c2cc(C(C)(C)C)nn2CC)c1OC [Compound 97] = 0

Next compound, Morningglory plant response rating to be filled in.
Entry CCn1nc(C(C)(C)C)cc1C(=O)Nc1cccc(SC(F)(F)F)c1 [Compound 130] has what Morningglory plant response rating?
10

Numbers sourced from patent US20060069132A1.
